# test.details: Thermal stability of compound in DMSO/methanol assessed as mass loss by UV spectroscopic method
# Assay type: physicochemical
# condition.summary: read-out: Drug degradation
reported.metric: degraded (%)

1 = O=C(N/N=C/c1ccc(Oc2nc(Oc3ccc(/C=N/NC(=O)c4ccc(O)cc4)cc3)nc(Oc3ccc(/C=N/NC(=O)c4ccc(O)cc4)cc3)n2)cc1)c1ccc(O)cc1
2 = CCCCC(CC)COC(=O)c1ccc(Nc2nc(Nc3ccc(C(=O)OCC(CC)CCCC)cc3)nc(Nc3ccc(C(=O)OCC(CC)CCCC)cc3)n2)cc1 (stereo unspecified)
3 = O=C(N/N=C/c1ccc(Oc2nc(Oc3ccc(/C=N/NC(=O)c4ccncc4)cc3)nc(Oc3ccc(/C=N/NC(=O)c4ccncc4)cc3)n2)cc1)c1ccncc1
Rank the listed molecules by degraded, largest first. Dear reader, please state the labels in the requested order. 2, 3, 1
